Source: ChEMBL document CHEMBL4265984

# test.summary: Selectivity index, ratio of TD50 for mouse NIH/3T3 cells to MIC>90 for Cryptococcus neoformans H99S serotype A
# Type: toxicity
# experimental.setup: read-out: Selectivity Index
Reported selectivity ratio values are given for each entry in this list.
Answer using only a numeral; do not append any unit.

CCCCCCCCCCCCCNCC(=O)N(CCCCN)CC(=O)N(CC(N)=O)Cc1ccco1: 8

Input line: # get_value(readout='selectivity ratio', item= CCCCCCCCCCCCCNCC(=O)N(CCCCN)CC(=O)N(CC(N)=O)Cc1cccs1 )
Output line: 21

* * *

# test.summary: Cytotoxicity against human HepG2 cells after 72 hrs by MTT assay
# Assay type: cell-based
# experimental.setup: read-out: TD50
observed.property: log10 CC50 at 72 h (log10 of the value in µg/mL)
Values below are the log10 of the recorded CC50 at 72 h, with µg/mL as the unit.

Some solved entries appear below for comparison.
CCCCCCCCCCCCCNCC(=O)N(CCCCN)CC(=O)N(CCCn1ccnc1)CC(N)=O: 2.36
CCCCCCCCCCCCCNCC(=O)N(C)CC(=O)N(CC(N)=O)Cc1ccco1: 1.32
CCCCCCCCCCCCCNCC(=O)N(CCCCN)CC(=O)N(CC(N)=O)Cc1cccs1: 1.90
CC(C)=CCC/C(C)=C/CC/C(C)=C/CNCC(=O)N(CCCCN)CC(=O)N(CC(N)=O)Cc1ccco1: 2.90

Input line: Item CCCCCCCCCCCCCNCC(=O)N(CCCCN)CC(=O)N(CC(N)=O)CC1CCCO1 (centres undefined) has what recorded log10 CC50 at 72 h?
Output line: 2.23

Input line: Given CCCCCCCCCCCCCNCC(=O)N(CCCCN)CC(=O)N(CC(N)=O)Cc1ccccc1 , state its recorded log10 CC50 at 72 h.
Output line: 1.72

Input line: For the molecule CCCCCCCCCCCCCNCC(=O)N(CCCCN)CC(=O)N(CC(N)=O)Cc1ccncc1 , what log10 CC50 at 72 h is on record?
Output line: 2.02

Input line: Give the measured log10 CC50 at 72 h of CCCCCCCCCCCCCNCC(=O)N(CCCN)CC(=O)N(CC(N)=O)Cc1cccs1 .
Output line: 1.67

Input line: Find the recorded log10 CC50 at 72 h belonging to CCCCCCCCCCCCCNCC(=O)N(CCCNC(=N)N)CC(=O)N(CC(N)=O)Cc1cccs1 and report it.
Output line: 1.61

Input line: Bench note: what log10 CC50 at 72 h did CCCCCCCCCCCCCCCCNCC(=O)N(CCCCN)CC(=O)N(CC(N)=O)Cc1ccco1 show?
Output line: 1.61

Input line: Dear colleague, I am looking for the recorded log10 CC50 at 72 h of the following molecule: CCCCCCCCCCCCCNCC(=O)N(CCCC[N+](C)(C)C)CC(=O)N(CC(N)=O)Cc1cccs1
Output line: 1.96

Input line: Fill in: log10 CC50 at 72 h of CCCCCCCCCCCCCNCC(=O)N(CCCCN)CC(=O)N(CC(N)=O)Cc1ncc[nH]1 is ___
Output line: 2.17

Input line: Requested read-out: log10 CC50 at 72 h. Entry: CCCCCCCCCCCCCNCC(=O)N(CCCCCCN)CC(=O)N(CC(N)=O)Cc1cccs1
Output line: 1.75

Input line: log10 CC50 at 72 h for CCCCCCCCCCCCCNCC(=O)N(CCCCN)CC(=O)N(C)CC(N)=O ?
Output line: 1.73
